- TEST: Inhibition of HIV-1 His6-tagged integrase interaction to FLAG-tagged LEDGF/p75 preincubated for 30 mins prior to LEDGF/p75 addition measured after 60 mins by alphascreen assay
- Set-up: species or system Human immunodeficiency virus 1
MEASURED ATTRIBUTE: IC50 (nM)
Please state the figure in nM; there is no need to write the unit.

Completed entries (count: 3):
- COMPOUND: "Oc1ccc(CN2CCN(c3ccccc3)CC2)c2cccnc12"
  UNITS OF MEASURE: "nM"
  IC50: 2100
- COMPOUND: "COc1cccc(NCc2ccc(O)c3ncccc23)c1"
  UNITS OF MEASURE: "nM"
  IC50: 3200
- COMPOUND: "COc1ccc(C(NC(C)=O)c2cc([N+](=O)[O-])c3cccnc3c2O)cc1OC (stereo unspecified)"
  UNITS OF MEASURE: "nM"
  IC50: 3900

Requested read-out: IC50. Entry: `CCN1CCN(Cc2ccc(O)c3ncccc23)CC1`
1200

Requested read-out: IC50. Entry: `Cc1ccccc1NCc1ccc(O)c2ncccc12`
1400

Requested read-out: IC50. Entry: CCC(=O)NC(c1ccc(OC)cc1)c1cc([N+](=O)[O-])c2cccnc2c1O (stereo unspecified)
2600

* * *

- Test system: LNCaP
- TEST: Cytotoxicity against human LNCAP cells assessed as inhibition of cell proliferation after 72 hrs by MTT assay
- Format: cell-based
MEASURED ATTRIBUTE: CC50

- MOLECULE: "CCOC(=O)N1CCN(Cc2ccc(O)c3ncccc23)CC1"
  TARGET UNDER TEST: "LNCaP"
  CC50: "> 10 µM"
- MOLECULE: "Oc1ccc(CNc2ccc(C(F)(F)F)cc2)c2cccnc12"
  TARGET UNDER TEST: "LNCaP"
  CC50: "> 10 µM"
- MOLECULE: "Oc1ccc(CN2CCN(Cc3ccccc3)CC2)c2cccnc12"
  TARGET UNDER TEST: "LNCaP"
  CC50: "> 10 µM"

Value wanted: CC50 (LNCaP) of entry `CN1CCN(Cc2ccc(O)c3ncccc23)CC1`
> 10 µM

Value wanted: CC50 (LNCaP) of entry `Oc1ccc(CN2CCN(c3ccccn3)CC2)c2cccnc12`
> 10 µM

Value wanted: CC50 (LNCaP) of entry `CCOc1ccc(NCc2ccc(O)c3ncccc23)cc1`
> 10 µM

* * *

The entries below are paired with their reported CC50.
- Tested on: LNCaP
- TEST: Cytotoxicity against human LNCAP cells assessed as inhibition of cell proliferation after 72 hrs by MTT assay
- Assay type: cell-based

Completed entries (count: 5):
- COMPOUND: "Cc1ccc(NCc2ccc(O)c3ncccc23)cc1"
  EXPERIMENTAL RESULT: "> 10 µM"
- COMPOUND: "O=C(CC(Sc1cccc2cccnc12)c1ccc(F)cc1)c1cccs1 (centres undefined)"
  EXPERIMENTAL RESULT: "> 10 µM"
- COMPOUND: "CCC(=O)NC(c1ccc(OC)c(OC)c1)c1cc(Cl)c2cccnc2c1O (centres undefined)"
  EXPERIMENTAL RESULT: "3 µM"
- COMPOUND: "Oc1ccc(CN2CCCCC2)c2cccnc12"
  EXPERIMENTAL RESULT: "> 10 µM"
- COMPOUND: "COc1ccc(C(NC(C)=O)c2cc([N+](=O)[O-])c3cccnc3c2O)cc1OC (centres undefined)"
  EXPERIMENTAL RESULT: "> 10 µM"

Requested read-out: CC50. Entry: CCC(=O)NC(c1ccc(OC)cc1)c1cc([N+](=O)[O-])c2cccnc2c1O (centres undefined)
> 10 µM

* * *

- Tested on: LNCaP
- TEST: Cytotoxicity against human LNCAP cells assessed as inhibition of cell proliferation after 72 hrs by MTT assay
- Format: cell-based
MEASURED ATTRIBUTE: CC50 (µM)
Please state the figure in µM; there is no need to write the unit.

- MOLECULE: "CCCC(=O)NC(c1ccccc1)c1ccc2cccnc2c1O (stereo not drawn)"
  CC50 (µM): 0.68
- MOLECULE: "O=C(CC(Sc1cccc2cccnc12)c1ccc(OC(F)F)cc1)c1ccco1 (stereo not drawn)"
  CC50 (µM): 0.8
- MOLECULE: "CCC(=O)NC(c1ccccc1OC)c1ccc2cccnc2c1O (stereo not drawn)"
  CC50 (µM): 0.58

Requested read-out: CC50. Entry: `Oc1ccc(CN2CCN(c3ccccc3)CC2)c2cccnc12`
5

Requested read-out: CC50. Entry: `CCOCc1ccc(O)c2ncccc12`
2

Requested read-out: CC50. Entry: COc1cccc(C(NC(C)=O)c2ccc3cccnc3c2O)c1 (stereo not drawn)
0.58

Requested read-out: CC50. Entry: CCC(=O)NC(c1ccco1)c1cc(Cl)c2cccnc2c1O (stereo not drawn)
0.72

Requested read-out: CC50. Entry: `COc1cccc(NCc2ccc(O)c3ncccc23)c1`
5

Requested read-out: CC50. Entry: CC(=O)NC(c1ccc(N(C)C)cc1)c1cc(Cl)c2cccnc2c1O (stereo not drawn)
0.62

Requested read-out: CC50. Entry: `Oc1c(Cl)cc(Cl)c2cccnc12`
2.5
